Numbers sourced from paper PMC6773690.

Molecular target: T1, GST-SCRIB PDZ domain 3 (UniProt Q14160 1004-1093)
T1 construct: scribble (SCRIB), PDZ domain 3 alone; also called SCRIB PDZ3; PDZ3; source: E. coli Rosetta (DE3), purified (glutathione agarose); not shown: GST, N-terminal, kept
T1 sequence (looked up): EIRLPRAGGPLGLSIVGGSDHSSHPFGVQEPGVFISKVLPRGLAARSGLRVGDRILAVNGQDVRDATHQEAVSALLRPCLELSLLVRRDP
Test: BLI; Octet Red 96; 50 nM biotin-labeled α1D-CT peptide immobilised on streptavidin probes, then biocytin; serial dilutions of purified PDZ proteins as analytes until steady state; 20 mM Tris-HCl pH 8.0, 200 mM NaCl, 0.1% bovine serum albumin
Details: both partners purified
pKd: −log10 of the molar value. Ends that are not written are not given here.

- Binder: "GATCQAYELADYSNLRETDI (peptide, UniProt P25100 553-572, looked up, also: biotin label (position not given here), α1D-adrenergic receptor, distal (last) 20 amino acids of the C-terminus; also called α1D-CT; α1D-AR C-terminal PDZ ligand; source: synthetic peptide, bought: BioMatik) [biotin-labeled peptide containing the last 20 amino acids of the α1D-adrenergic receptor C-terminus]"
  pKd: 4.35
